This collection of values is drawn from patent US20160200799A1.

Biological target: Influenza virus A/Brisbane/59/2007 (H1N1) (Influenza A virus A/Brisbane/59/2007 (H1N1))
Assay: ELISA on coated viral particles
measured.endpoint: Binding activity (absorbance at 492 nm)
// keep it numeric: no unit symbol after the value

binder: Group 59 representative clone F083-351, Fab-cp3-type antibody (Fab, V domains shown) VH: QVQLVQSGADVKKAGSSVKVSCKASGRTFGNYAISWVRQAPGQGLEWMGGITPIFGAANYAQKFQGRVTISADLSTRMVYMDLSSLRSDDTAFYYCAGHPMYHYGSAMDYWGQGTLVTVSS VL: QSVLTQPPSASGTPGQRVSISCFGSRSNVGSSSVNWYQQLPGRAPKLLIQRNDQRPSGVPDRFSGSKSGTSASLAISGLQSDDESTYYCAAWDDSVKSVVFGGGTQLTVLG
measured.value: 3.09

binder: Group 2 representative clone F082-220, Fab-cp3-type antibody (Fab, V domains shown) VH: QVQLVQSGAEVKKPGSSVKVSCKASGGIFRSNAVSWVRQAPGQGLEWMGGIIAIFGTPKYAQKFQGRVTITADESTSTVYMELSGLRYEDTAVYYCARGPNYYESYFDYWGQGTLVTVSS VL: DIVMTQSPPSLSASVGDRVTITCRASQGISNYLAWYQQKPGKAPKLLIFGASTLHSGVSSRFSGSGSGPDFTLTISSLQPEDAATYYCQKYHSAPLTFGGGTKVEMK
measured.value: 3.15

Turning now to a further binder:
Kindly note the recorded Binding activity (absorbance at 492 nm) for Group 63 representative clone F083-336, Fab-cp3-type antibody (Fab, V domains shown) VH: QVQLQQSGAEVKQPGSSVKVSCKASGGIFRSNAISWVRQAPGQGLEWMGGIVALFGTANYAQKFQGRVTITADESTSTVYMELSSLRSEDTARYYCARNSGYHISGFYLDYWGQGTLVTVSS VL: EIVLTQSPSSLSASVGDRVTITCRASQGISNYLAWYQQRPGKVPKLLIYTASTLLSGVPSRFSGGGSGTDYTLTISSLQPEDVATYYCQEYKSVPLTFGPGTKVEIK , which is 1.89
